The reported measurements were obtained from PubChem BioAssay AID743314.

# target_system: Endoplasmic reticulum aminopeptidase 1 (Homo sapiens)
# assay: ERAP1 aminopeptidase inhibitors, dose response, biochemical, cherry-pick, set 2, plate reader (AID 743314);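 further: 0% = neutral control wells and -100% = L-leucinethiol positive control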
# measurement_setup: Recombinant ERAP1, Leu-AMC fluorescence, 60 min; series mostly up to 11 µM
Measured potencies and affinities stand elsewhere. Inconclusive results are not listed. Active and inactive are the calls of the source.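 How the source made its calls: active means fitted half-maximal concentration no higher than twice the top tested dose, in every repeat run; inconclusive means repeat runs disagree, poor fit, or flat partial inhibition; inactive means the rest.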
test_readout: activity change, negative = inhibition

[[record]]
molecule = "CCN(CC)c1ccc2c(C)c(Cl)c(=O)oc2c1"
target_system = "Endoplasmic reticulum aminopeptidase 1 (Homo sapiens)"
test_readout = "activity change, negative = inhibition"
reported = "inactive"

[[record]]
molecule = "CC(=O)N1CCCCN2[C@H](CO)[C@@H](c3ccc(-c4ccccc4)cc3)[C@H]2C1"
target_system = "Endoplasmic reticulum aminopeptidase 1 (Homo sapiens)"
test_readout = "activity change, negative = inhibition"
reported = "inactive"

[[record]]
molecule = "COc1ccc(NC(=O)Nc2cccc3c2O[C@H](CN(C)Cc2ccc(C(=O)O)cc2)[C@H](C)CN([C@H](C)CO)C3=O)cc1"
target_system = "Endoplasmic reticulum aminopeptidase 1 (Homo sapiens)"
test_readout = "activity change, negative = inhibition"
reported = "inactive"

[[record]]
molecule = "COc1ccc2c3c(n(C)c2c1)[C@H](CO)N(C)CC31CN(C(=O)c2cccnc2)C1"
target_system = "Endoplasmic reticulum aminopeptidase 1 (Homo sapiens)"
test_readout = "activity change, negative = inhibition"
reported = "inactive"


response.value for C[C@H](CO)N1C[C@H](C)[C@@H](CN(C)C)OCCCC[C@H](C)Oc2ccc(NS(=O)(=O)c3ccc(Cl)cc3)cc2C1=O (field: activity change, negative = inhibition) = inactive

response.value for CC(=O)Oc1ccc(-c2cc3c(OC(C)=O)cc(OC(C)=O)cc3oc2=O)cc1 (field: activity change, negative = inhibition) = 13.7% [at 2.6 µM] (inactive)

response.value for CC(C)NC(=O)C1C(c2ccc(C(F)(F)F)cc2)=Nc2ccccc2N1C(=O)c1ccco1 (centres undefined) (field: activity change, negative = inhibition) = inactive

response.value for CCCCC1CCC(C(=O)OC(C)C(=O)Nc2ccc(NC(C)=O)cc2)CC1 (centres undefined) (field: activity change, negative = inhibition) = inactive

response.value for CCOc1ccccc1N1CCN(C(=O)C2=CC=CN3CCS(=O)(=O)N=C23)CC1 (field: activity change, negative = inhibition) = inactive
